- experimental system: fusion protein PRM
- Sequence (chain, as listed by the source): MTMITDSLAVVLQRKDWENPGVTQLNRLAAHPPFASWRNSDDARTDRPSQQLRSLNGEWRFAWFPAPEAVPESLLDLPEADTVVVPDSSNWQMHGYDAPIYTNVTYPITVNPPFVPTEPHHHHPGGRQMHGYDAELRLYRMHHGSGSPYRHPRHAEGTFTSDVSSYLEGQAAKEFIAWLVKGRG
assay endpoint: relative cleavage efficiency

OmpT protease variant OmpT D97V (protein) STETLSFTPDNINADISLGTLSGKTKERVYLAEEGGRKVSQLDWKFNNAAIIKGAINWDLMPQISIGAAGWTTLGSRGGNMVDQDWMDSSNPGTWTVESRHPDTQLNYANEFDLNIKGWLLNEPNYRLGLMAGYQESRYSFTARGGSYIYSSEEGFRDDIGSFPNGERAIGYKQRFKMPYIGLTGSYRYEDFELGGTFKYSGWVESSDNDEHYDPGKRITYRSKVKDQNYYSVAVNAGYYVTPNAKVYVEGAWNRVTNKKGNTSLYDHNNNTSDYSKNGAGIENYNFITTAGLKYTF	less than 3.0%
OmpT protease variant OmpT D97W (protein) STETLSFTPDNINADISLGTLSGKTKERVYLAEEGGRKVSQLDWKFNNAAIIKGAINWDLMPQISIGAAGWTTLGSRGGNMVDQDWMDSSNPGTWTWESRHPDTQLNYANEFDLNIKGWLLNEPNYRLGLMAGYQESRYSFTARGGSYIYSSEEGFRDDIGSFPNGERAIGYKQRFKMPYIGLTGSYRYEDFELGGTFKYSGWVESSDNDEHYDPGKRITYRSKVKDQNYYSVAVNAGYYVTPNAKVYVEGAWNRVTNKKGNTSLYDHNNNTSDYSKNGAGIENYNFITTAGLKYTF	less than 3.0%
